System: SF-539 CNS
Test: NCI tumour cell line growth inhibition, 48 h
QUANTITY_KIND: TGI

Take a look at these entries with their results.
Cc1cc(Cl)ccc1NC(=O)C1C(=O)N(c2ccc(Cl)cc2C)C(=O)/C1=N\N (configuration not stated)
> 100 µM
CCC(=O)O[C@@H]1C2C(OC(C)=O)C34COC(C)([C@@H]3C3C(C[C@]3(C)OC(C)=O)[C@@H](OC(=O)c3ccccc3)C4=O)[C@H](OC(C)=O)[C@@]2(OC(C)=O)C[C@@H]1C (some centres not stated)
47.5 µM
O=[N+]([O-])c1ccc2[nH]cc(-c3c4ccccc4cc4[nH]c5ccc([N+](=O)[O-])cc5c34)c2c1
4.98 µM
COc1ccc(OC)c2c1C[C@@H]1C(C#N)N3[C@H](Cc4c(OC)ccc(OC)c4[C@@H]3C)C(=O)N1[C@H]2C (some centres not stated)
5.97 µM
C=C1C(=O)O[C@H]2[C@H]1CC/C(COC(=O)CCC(=O)OC/C1=C/CC[C@@]3(C)O[C@H]3[C@H]3OC(=O)C(=C)[C@@H]3CC1)=C\CC[C@@]1(C)O[C@@H]21
5.58 µM

Now for another entry.
The value of TGI recorded for CCC(C#N)N(Cc1cccc(CN(C(C)=O)C(C#N)CC)c1)C(C)=O (configuration not stated) when tested on SF-539 CNS reads > 100 µM

Source listed as PubChem BioAssay (NCI).
